Data provenance: ChEMBL document CHEMBL3885861

organism: Rattus norvegicus; test: Open TG-GATES - Regimen: Single; type: toxicity, organism-based, Sprague-Dawley; set-up: regimen Single, gender Male, age 6 weeks; details: in vivo, po, 300 mg/kg, 9 h, tissue Plasma, route gavage, dose level Middle
Value kind: PL (mg/dL)
Write down the numeric answer in mg/dL and omit the unit.

The compound listed as `NC(N)=Nc1nc(CSCCC(N)=NS(N)(=O)=O)cs1` shows PL equal to 130

The compound listed as CCOC(=O)CCC(=O)O[C@H]1[C@H](O[C@@H]2[C@@H](C)[C@H](O[C@H]3C[C@@](C)(OC)[C@@H](O)[C@H](C)O3)[C@@H](C)C(=O)O[C@H](CC)[C@@](C)(O)[C@H](O)[C@@H](C)C(=O)[C@H](C)C[C@@]2(C)O)O[C@H](C)C[C@@H]1N(C)C [ERYTHROMYCIN ETHYLSUCCINATE] shows PL equal to 136

The compound listed as COc1ccc2[nH]c([S+]([O-])Cc3ncc(C)c(OC)c3C)nc2c1 (centres undefined) shows PL equal to 133.2

The compound listed as `COC1=CC(=O)C[C@@H](C)[C@]12Oc1c(Cl)c(OC)cc(OC)c1C2=O` shows PL equal to 140.6

###

species: Rattus norvegicus; test: Open TG-GATES - Regimen: Single; type: toxicity, organism-based, Sprague-Dawley; parameters: regimen Single, gender Male, age 6 weeks; conditions: in vivo, po, 1000 mg/kg, 3 h, tissue Plasma, route gavage, dose level High
Value kind: ALP (IU/L)
Write down the numeric answer in IU/L and omit the unit.

The compound listed as `NC(N)=Nc1nc(CSCCC(N)=NS(N)(=O)=O)cs1` shows ALP equal to 873.2

The compound listed as `COC1=CC(=O)C[C@@H](C)[C@]12Oc1c(Cl)c(OC)cc(OC)c1C2=O` shows ALP equal to 900

The compound listed as COc1ccc2[nH]c([S+]([O-])Cc3ncc(C)c(OC)c3C)nc2c1 (centres undefined) shows ALP equal to 966.6

The compound listed as CCOC(=O)CCC(=O)O[C@H]1[C@H](O[C@@H]2[C@@H](C)[C@H](O[C@H]3C[C@@](C)(OC)[C@@H](O)[C@H](C)O3)[C@@H](C)C(=O)O[C@H](CC)[C@@](C)(O)[C@H](O)[C@@H](C)C(=O)[C@H](C)C[C@@]2(C)O)O[C@H](C)C[C@@H]1N(C)C [ERYTHROMYCIN ETHYLSUCCINATE] shows ALP equal to 1535.2

###

organism: Rattus norvegicus; assay: Open TG-GATES - Regimen: Single; type: toxicity, organism-based, Sprague-Dawley; parameters: regimen Single, gender Male, age 6 weeks; details: in vivo, po, 100 mg/kg, 3 h, tissue Blood, route gavage, dose level Low
Value kind: PT (s)
Write down the numeric answer in s and omit the unit.

The compound listed as CCOC(=O)CCC(=O)O[C@H]1[C@H](O[C@@H]2[C@@H](C)[C@H](O[C@H]3C[C@@](C)(OC)[C@@H](O)[C@H](C)O3)[C@@H](C)C(=O)O[C@H](CC)[C@@](C)(O)[C@H](O)[C@@H](C)C(=O)[C@H](C)C[C@@]2(C)O)O[C@H](C)C[C@@H]1N(C)C [ERYTHROMYCIN ETHYLSUCCINATE] shows PT equal to 16.2

The compound listed as COC1=CC(=O)C[C@@H](C)[C@]12Oc1c(Cl)c(OC)cc(OC)c1C2=O [GRISEOFULVIN] shows PT equal to 13

The compound listed as NC(N)=Nc1nc(CSCCC(N)=NS(N)(=O)=O)cs1 [FAMOTIDINE] shows PT equal to 12.3

The compound listed as COc1ccc2[nH]c([S+]([O-])Cc3ncc(C)c(OC)c3C)nc2c1 (centres undefined) [OMEPRAZOLE] shows PT equal to 12.6
